Assay Target: Gamma-aminobutyric acid receptor subunit alpha-6/beta-2 (Rattus norvegicus, UniProt P30191+P63138)
Sequence (P30191 whole entry): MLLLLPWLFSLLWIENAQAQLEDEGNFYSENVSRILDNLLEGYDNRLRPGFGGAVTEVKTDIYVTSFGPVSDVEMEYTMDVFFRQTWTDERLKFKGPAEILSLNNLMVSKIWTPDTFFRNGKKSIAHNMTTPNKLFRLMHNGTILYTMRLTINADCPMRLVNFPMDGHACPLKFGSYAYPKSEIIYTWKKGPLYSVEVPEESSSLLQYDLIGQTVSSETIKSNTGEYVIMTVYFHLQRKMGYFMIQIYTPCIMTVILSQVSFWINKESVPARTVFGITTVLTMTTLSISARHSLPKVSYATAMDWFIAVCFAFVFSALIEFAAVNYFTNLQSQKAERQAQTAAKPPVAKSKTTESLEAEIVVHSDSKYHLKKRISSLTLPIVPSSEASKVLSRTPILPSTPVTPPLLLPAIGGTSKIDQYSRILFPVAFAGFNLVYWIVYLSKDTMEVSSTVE
Sequence (P63138 whole entry): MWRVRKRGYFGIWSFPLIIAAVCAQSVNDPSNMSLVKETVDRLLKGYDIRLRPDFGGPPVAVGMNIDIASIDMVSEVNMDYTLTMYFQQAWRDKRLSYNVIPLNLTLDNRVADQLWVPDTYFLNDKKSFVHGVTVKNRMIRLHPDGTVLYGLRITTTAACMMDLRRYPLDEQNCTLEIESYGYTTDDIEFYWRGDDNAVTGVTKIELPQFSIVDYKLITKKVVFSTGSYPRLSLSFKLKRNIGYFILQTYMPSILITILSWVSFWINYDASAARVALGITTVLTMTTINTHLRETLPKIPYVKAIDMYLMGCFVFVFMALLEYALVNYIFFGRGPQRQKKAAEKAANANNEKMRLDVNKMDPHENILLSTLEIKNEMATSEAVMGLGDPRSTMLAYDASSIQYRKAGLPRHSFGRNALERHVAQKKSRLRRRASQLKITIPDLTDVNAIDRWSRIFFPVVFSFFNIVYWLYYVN
Method Notes: Displacement of [3H]EBOB from rat GABA-A receptor alpha6beta2 expressed in HEK293 cell membranes after 90 mins by liquid scintillation counting analysis
What IC50 was measured for each of the following?
Field note: include the unit after the figure.

[ask] For `O=C(Nc1c(-c2cccs2)nc2c(Br)cc(Br)cn12)c1ccc(OCCCCF)cc1` , what is its reported IC50?
[reply] 740 nM

[ask] For `O=C(Nc1c(-c2cccs2)nc2c(Br)cc(Br)cn12)c1ccc(Cl)cc1` , what is its reported IC50?
[reply] 630 nM

###

What IC50 was measured for each of the following?
Assay Target: Gamma-aminobutyric acid receptor subunit alpha-6/beta-3 (Rattus norvegicus, UniProt P30191+P63079)
Method Notes: Displacement of [3H]EBOB from rat GABA-A receptor alpha6beta3 expressed in HEK293 cell membranes after 90 mins by liquid scintillation counting analysis
Kindly provide the numeric value in nM only, without the unit symbol.

[ask] For `O=C(Nc1c(-c2cccs2)nc2ccc(Br)cn12)C1CCCCC1` , what is its reported IC50?
[reply] 16000

[ask] For `O=C(Nc1c(-c2cccs2)nc2c(Br)cc(Br)cn12)c1ccc(Cl)cc1` , what is its reported IC50?
[reply] 790

[ask] For `O=C(Nc1c(-c2cccs2)nc2c(Br)cc(Br)cn12)c1ccc(F)cc1` , what is its reported IC50?
[reply] 3060

[ask] For `CCCCOc1ccc(C(=O)Nc2c(-c3cccs3)nc3c(Br)cc(Br)cn23)cc1` , what is its reported IC50?
[reply] 2500

###

Assay Target: Gamma-aminobutyric acid receptor subunit alpha-1/beta-3/delta (Rattus norvegicus, UniProt P18506+P62813+P63079)
Sequence (P18506 whole entry): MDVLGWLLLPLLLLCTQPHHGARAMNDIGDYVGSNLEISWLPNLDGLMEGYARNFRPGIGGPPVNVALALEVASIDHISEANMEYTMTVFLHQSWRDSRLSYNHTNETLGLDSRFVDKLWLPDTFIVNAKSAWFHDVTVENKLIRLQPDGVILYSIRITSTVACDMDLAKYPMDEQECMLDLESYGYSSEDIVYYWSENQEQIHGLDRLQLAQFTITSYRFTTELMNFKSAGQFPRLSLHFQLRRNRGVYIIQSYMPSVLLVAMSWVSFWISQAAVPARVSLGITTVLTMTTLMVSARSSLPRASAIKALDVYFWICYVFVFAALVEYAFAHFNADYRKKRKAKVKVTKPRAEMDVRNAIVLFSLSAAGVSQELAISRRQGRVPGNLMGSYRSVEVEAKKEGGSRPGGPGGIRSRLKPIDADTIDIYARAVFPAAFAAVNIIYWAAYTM
Sequence (P62813 whole entry): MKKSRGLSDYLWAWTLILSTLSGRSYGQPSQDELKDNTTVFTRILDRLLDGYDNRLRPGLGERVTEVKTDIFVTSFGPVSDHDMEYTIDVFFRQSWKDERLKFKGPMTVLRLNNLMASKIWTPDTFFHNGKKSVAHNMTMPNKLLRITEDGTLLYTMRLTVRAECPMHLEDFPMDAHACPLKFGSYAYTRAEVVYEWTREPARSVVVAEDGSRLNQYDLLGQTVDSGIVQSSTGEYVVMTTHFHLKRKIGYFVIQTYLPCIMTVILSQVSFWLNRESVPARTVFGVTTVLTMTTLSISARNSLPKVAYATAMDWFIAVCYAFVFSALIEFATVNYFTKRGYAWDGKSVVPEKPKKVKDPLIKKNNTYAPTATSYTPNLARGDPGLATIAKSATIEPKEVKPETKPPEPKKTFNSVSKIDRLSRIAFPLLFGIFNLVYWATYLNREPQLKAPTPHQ
Sequence (P63079 whole entry): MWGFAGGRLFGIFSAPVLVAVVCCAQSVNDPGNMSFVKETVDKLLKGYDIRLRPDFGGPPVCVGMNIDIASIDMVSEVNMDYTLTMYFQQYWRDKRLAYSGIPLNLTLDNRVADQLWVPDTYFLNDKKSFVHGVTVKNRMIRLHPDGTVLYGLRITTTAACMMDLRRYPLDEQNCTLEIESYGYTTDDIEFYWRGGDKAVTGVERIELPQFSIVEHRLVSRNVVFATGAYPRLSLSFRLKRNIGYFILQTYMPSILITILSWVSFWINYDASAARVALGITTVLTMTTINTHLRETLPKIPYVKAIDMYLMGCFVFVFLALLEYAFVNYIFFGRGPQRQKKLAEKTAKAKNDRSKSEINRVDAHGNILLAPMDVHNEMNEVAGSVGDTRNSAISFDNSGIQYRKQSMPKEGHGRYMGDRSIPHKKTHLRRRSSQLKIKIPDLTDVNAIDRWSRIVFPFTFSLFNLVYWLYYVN
Method Notes: Modulation of rat […] GABA-A receptor alpha1beta3delta expressed in HEK293 cells in presence of GABA by patch-clamp assay
What pEC50 was measured for each of the following?
Field pEC50 (float): negative decimal logarithm of the concentration in molar.

[ask] For `O=C(Nc1c(-c2cccs2)nc2c(Br)cc(Br)cn12)c1ccc(Cl)cc1` , what is its reported pEC50?
[reply] 7.00

[ask] For `O=C(Nc1c(-c2cccs2)nc2ccccn12)c1ccc(Cl)cc1` , what is its reported pEC50?
[reply] 6.07

###

What Imax was measured for each of the following?
Assay Target: Gamma-aminobutyric acid receptor subunit alpha-6/beta-3/delta (Rattus norvegicus) (UniProt P18506+P30191+P63079)
Method Notes: Displacement of [3H]EBOB from rat GABA-A receptor alpha6beta3delta expressed in HEK293 cell membranes up to 10 uM after 90 mins by liquid scintillation counting analysis relative to control

[ask] For `O=C(Nc1c(-c2cccs2)nc2c(Br)cc(Br)cn12)c1ccc(OCCCF)cc1` , what is its reported Imax?
[reply] 38%

[ask] For `O=C(Nc1c(-c2cccs2)nc2c(Br)cc(Br)cn12)c1ccc(F)cc1` , what is its reported Imax?
[reply] 87%

[ask] For `O=C(Nc1c(-c2cccs2)nc2c(Br)cc(Br)cn12)c1ccc(Cl)cc1` , what is its reported Imax?
[reply] 84%

[ask] For `CCCCOc1ccc(C(=O)Nc2c(-c3cccs3)nc3c(Br)cc(Br)cn23)cc1` , what is its reported Imax?
[reply] 71%

[ask] For `O=C(Nc1c(-c2cccs2)nc2c(Br)cc(Br)cn12)c1ccc(OCCCCF)cc1` , what is its reported Imax?
[reply] 53%
